This collection of values is drawn from PubChem BioAssay AID1918958.

System: NCI-H196 complex spheroid viability
method-notes: Anticancer human tumor NCI-H196 cell line growth inhibition [LSD1]
condition: second compound 1 µM; first compound 0.00949 µM; hits give low values
Response field label takes Condition met when viability, T/C is strictly below 90% and Condition not met in all other cases.

>  <compound>
CCc1c2c(nc3ccc(O)cc13)-c1cc3c(c(=O)n1C2)COC(=O)[C@]3(O)CC + NC1CCC(NC2CC2c2ccccc2)CC1

>  <class>
Condition met

$$$$
>  <compound>
O=C(C=Cc1cccc(S(=O)(=O)Nc2ccccc2)c1)NO + NC1CCC(NC2CC2c2ccccc2)CC1

>  <class>
Condition not met

$$$$
>  <compound>
O=C(C=Cc1cccc(S(=O)(=O)Nc2ccccc2)c1)NO + NC1CC1c1ccc(-c2cccc(O)c2)cc1

>  <class>
Condition not met

$$$$
>  <compound>
Nc1ncn(C2CC(O)C(CO)S2)c(=O)n1 (stereo not given) + NC1CC1c1ccc(-c2cccc(O)c2)cc1

>  <class>
Condition not met

$$$$

* * *

System: NCI-H196 complex spheroid viability
method-notes: Anticancer human tumor NCI-H196 cell line growth inhibition [LSD1]
condition: second compound 3.16 µM; first compound 0.00949 µM; hits give low values
Form field: viability, T/C (one value per entry).

>  <compound>
Nc1ccn(C2OC(CO)C(O)C2(F)F)c(=O)n1 (centres undefined) + NC1CCC(NC2CC2c2ccccc2)CC1

>  <viability, T/C>
88.2%

$$$$
>  <compound>
Nc1ccccc1NC(=O)c1ccc(CNC(=O)OCc2cccnc2)cc1 + NC1CCC(NC2CC2c2ccccc2)CC1

>  <viability, T/C>
85.3%

$$$$
>  <compound>
CCc1c2c(nc3ccc(O)cc13)-c1cc3c(c(=O)n1C2)COC(=O)[C@]3(O)CC + NC1CC1c1ccc(-c2cccc(O)c2)cc1

>  <viability, T/C>
37.8%

$$$$
>  <compound>
NS(=O)(=O)OCC1CC(n2ccc3c(NC4CCc5ccccc54)ncnc32)CC1O (centres undefined) + NC1CC1c1ccc(-c2cccc(O)c2)cc1

>  <viability, T/C>
71.6%

$$$$

* * *

Attribute: viability, T/C
System: NCI-H196 complex spheroid viability
method-notes: Anticancer human tumor NCI-H196 cell line growth inhibition [LSD1];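 further: spheroids exposed to agents for 7 days before readout; 100% = DMSO vehicle control viability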
condition: second compound 0.316 µM; first compound 3.16 µM; hits give low values
assay-readout: viability, T/C (%)

>  <compound>
CC1(C)CCC(CN2CCN(c3ccc(C(=O)NS(=O)(=O)c4ccc(NCC5CCOCC5)c([N+](=O)[O-])c4)c(Oc4cnc5[nH]ccc5c4)c3)CC2)=C(c2ccc(Cl)cc2)C1 + NC1CC1c1ccc(-c2cccc(O)c2)cc1

>  <readout-units>
%

>  <experimental-value>
79.2

$$$$
>  <compound>
CC1COCCN1c1cc(C2(S(C)(=N)=O)CC2)nc(-c2ccnc3[nH]ccc23)n1 (stereo unspecified) + NC1CC1c1ccc(-c2cccc(O)c2)cc1

>  <readout-units>
%

>  <experimental-value>
77.1

$$$$
>  <compound>
CC1COCCN1c1cc(C2(S(C)(=N)=O)CC2)nc(-c2ccnc3[nH]ccc23)n1 (stereo unspecified) + NC1CCC(NC2CC2c2ccccc2)CC1

>  <readout-units>
%

>  <experimental-value>
88.3

$$$$
>  <compound>
O=C(c1cc(Cc2n[nH]c(=O)c3ccccc23)ccc1F)N1CCN(C(=O)C2CC2)CC1 + NC1CC1c1ccc(-c2cccc(O)c2)cc1

>  <readout-units>
%

>  <experimental-value>
91.7

$$$$
>  <compound>
CC1(C)CCC(CN2CCN(c3ccc(C(=O)NS(=O)(=O)c4ccc(NCC5CCOCC5)c([N+](=O)[O-])c4)c(Oc4cnc5[nH]ccc5c4)c3)CC2)=C(c2ccc(Cl)cc2)C1 + NC1CCC(NC2CC2c2ccccc2)CC1

>  <readout-units>
%

>  <experimental-value>
78.3

$$$$
>  <compound>
O=C(c1cc(Cc2n[nH]c(=O)c3ccccc23)ccc1F)N1CCN(C(=O)C2CC2)CC1 + NC1CCC(NC2CC2c2ccccc2)CC1

>  <readout-units>
%

>  <experimental-value>
83.4

$$$$

* * *

Test system: NCI-H196 complex spheroid viability
method-notes: Anticancer human tumor NCI-H196 cell line growth inhibition [LSD1];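 further: spheroids exposed to agents for 7 days before readout; 100% = DMSO vehicle control viability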
condition: second compound 0.316 µM; first compound 3.16 µM; hits give low values

>  <molecule>
CC(C)c1c(-c2ccccc2)nc2c(C#N)c[nH]n2c1=O + NC1CCC(NC2CC2c2ccccc2)CC1

>  <viability, T/C>
90%

$$$$
>  <molecule>
COc1ccc([C@@H](O)c2cc(-c3ncnc4cc(N5CCOCC5)ccc34)c(F)cc2Cl)nn1 + NC1CCC(NC2CC2c2ccccc2)CC1

>  <viability, T/C>
73.4%

$$$$
>  <molecule>
COc1ccc([C@@H](O)c2cc(-c3ncnc4cc(N5CCOCC5)ccc34)c(F)cc2Cl)nn1 + NC1CC1c1ccc(-c2cccc(O)c2)cc1

>  <viability, T/C>
60.7%

$$$$
>  <molecule>
CC(C)c1c(-c2ccccc2)nc2c(C#N)c[nH]n2c1=O + NC1CC1c1ccc(-c2cccc(O)c2)cc1

>  <viability, T/C>
94.6%

$$$$

* * *

Known viability, T/C of a selection of compounds
Test system: NCI-H196 complex spheroid viability
method-notes: Anticancer human tumor NCI-H196 cell line growth inhibition [LSD1];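 further: spheroids exposed to agents for 7 days before readout; 100% = DMSO vehicle control viability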
condition: second compound 1 µM; first compound 0.316 µM; hits give low values
Text: Multicellular complex tumor spheroid response to LSD1 Inhibitor Iadademstat in combination with a variety of drugs and investigational agents in selected tumor cell lines The current study was undertaken to assess response to LSD1 inhibitors in combination with standard-of-care drugs and investigational agents in solid tumor complex spheroid models as well as in the K-562 leukemia. […] Compounds. […] If the clinical Cmax for an agent had not been determined, the highest concentration tested was 10 microM. […]

>  <compound>
O=C(c1cc(Cc2n[nH]c(=O)c3ccccc23)ccc1F)N1CCN(C(=O)C2CC2)CC1 + NC1CCC(NC2CC2c2ccccc2)CC1

>  <viability, T/C / %>
95.6

$$$$
>  <compound>
COc1ccc([C@@H](O)c2cc(-c3ncnc4cc(N5CCOCC5)ccc34)c(F)cc2Cl)nn1 + NC1CCC(NC2CC2c2ccccc2)CC1

>  <viability, T/C / %>
93.4

$$$$
>  <compound>
Nc1ncn(C2CC(O)C(CO)O2)c(=O)n1 (configuration not stated) + NC1CCC(NC2CC2c2ccccc2)CC1

>  <viability, T/C / %>
93.8

$$$$
>  <compound>
O=C(c1cc(Cc2n[nH]c(=O)c3ccccc23)ccc1F)N1CCN(C(=O)C2CC2)CC1 + NC1CC1c1ccc(-c2cccc(O)c2)cc1

>  <viability, T/C / %>
95.8

$$$$
>  <compound>
CC1COCCN1c1cc(C2(S(C)(=N)=O)CC2)nc(-c2ccnc3[nH]ccc23)n1 (configuration not stated) + NC1CC1c1ccc(-c2cccc(O)c2)cc1

>  <viability, T/C / %>
108

$$$$
>  <compound>
CC1COCCN1c1cc(-c2ccnn2C)c2ccnc(-c3ccn[nH]3)c2n1 (configuration not stated) + NC1CCC(NC2CC2c2ccccc2)CC1

>  <viability, T/C / %>
51.8

$$$$
>  <compound>
O=C(C=Cn1cnc(-c2cc(C(F)(F)F)cc(C(F)(F)F)c2)n1)NNc1cnccn1 + NC1CCC(NC2CC2c2ccccc2)CC1

>  <viability, T/C / %>
15.7

$$$$

* * *

Overview of reported viability, T/C across a group of molecules:
System: NCI-H196 complex spheroid viability
method-notes: Anticancer human tumor NCI-H196 cell line growth inhibition [LSD1];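 further: spheroids exposed to agents for 7 days before readout; 100% = DMSO vehicle control viability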
condition: second compound 0.1 µM; first compound 0.000949 µM; hits give low values

>  <molecule>
CCc1c2c(nc3ccc(O)cc13)-c1cc3c(c(=O)n1C2)COC(=O)[C@]3(O)CC + NC1CC1c1ccc(-c2cccc(O)c2)cc1

>  <viability, T/C / %>
119

$$$$
>  <molecule>
Nc1ncn(C2CC(O)C(CO)S2)c(=O)n1 (stereo unspecified) + NC1CCC(NC2CC2c2ccccc2)CC1

>  <viability, T/C / %>
112

$$$$
>  <molecule>
CCc1c2c(nc3ccc(O)cc13)-c1cc3c(c(=O)n1C2)COC(=O)[C@]3(O)CC + NC1CCC(NC2CC2c2ccccc2)CC1

>  <viability, T/C / %>
113

$$$$
>  <molecule>
Nc1ccn(C2OC(CO)C(O)C2(F)F)c(=O)n1 (stereo unspecified) + NC1CC1c1ccc(-c2cccc(O)c2)cc1

>  <viability, T/C / %>
119

$$$$
>  <molecule>
Nc1ncn(C2CC(O)C(CO)S2)c(=O)n1 (stereo unspecified) + NC1CC1c1ccc(-c2cccc(O)c2)cc1

>  <viability, T/C / %>
98.2

$$$$
>  <molecule>
Nc1ccn(C2OC(CO)C(O)C2(F)F)c(=O)n1 (stereo unspecified) + NC1CCC(NC2CC2c2ccccc2)CC1

>  <viability, T/C / %>
104

$$$$
